Tested on: Mycobacterium tuberculosis
Test: Antimycobacterial activity against Mycobacterium bovis BCG at 100 ug/mL after 24 to 48 hrs by MABA
Assay type: functional
Details: variant bovis BCG
Quick reference for inhibition at 100 µg/mL among some compounds

COMPOUND: [N-]=[N+]=NC(CI)c1cn(COCCO)c(=O)[nH]c1=O (stereo unspecified)
ASSAYED TARGET: Mycobacterium tuberculosis
inhibition at 100 µg/mL (%): 50

COMPOUND: Nc1cn(COCCO)c(=O)[nH]c1=O
ASSAYED TARGET: Mycobacterium tuberculosis
inhibition at 100 µg/mL (%): 50

COMPOUND: [N-]=[N+]=NC(CCl)c1cn(COCCO)c(=O)[nH]c1=O (stereo unspecified)
ASSAYED TARGET: Mycobacterium tuberculosis
inhibition at 100 µg/mL (%): 100

COMPOUND: CCCCCCCCC#Cc1cn(COC(CO)CO)c(=O)[nH]c1=O
ASSAYED TARGET: Mycobacterium tuberculosis
inhibition at 100 µg/mL (%): 100

COMPOUND: CCCCCCCCCCC#Cc1cn(COC(CO)CO)c(=O)[nH]c1=O
ASSAYED TARGET: Mycobacterium tuberculosis
inhibition at 100 µg/mL (%): 100

COMPOUND: C=C(N=[N+]=[N-])c1cn(COCCO)c(=O)[nH]c1=O
ASSAYED TARGET: Mycobacterium tuberculosis
inhibition at 100 µg/mL (%): 50
